Measured PBM E-score values are reported for all entries that follow.
# System tested: Stb4 (UniProt P50104)
# Sequence (P50104 whole entry): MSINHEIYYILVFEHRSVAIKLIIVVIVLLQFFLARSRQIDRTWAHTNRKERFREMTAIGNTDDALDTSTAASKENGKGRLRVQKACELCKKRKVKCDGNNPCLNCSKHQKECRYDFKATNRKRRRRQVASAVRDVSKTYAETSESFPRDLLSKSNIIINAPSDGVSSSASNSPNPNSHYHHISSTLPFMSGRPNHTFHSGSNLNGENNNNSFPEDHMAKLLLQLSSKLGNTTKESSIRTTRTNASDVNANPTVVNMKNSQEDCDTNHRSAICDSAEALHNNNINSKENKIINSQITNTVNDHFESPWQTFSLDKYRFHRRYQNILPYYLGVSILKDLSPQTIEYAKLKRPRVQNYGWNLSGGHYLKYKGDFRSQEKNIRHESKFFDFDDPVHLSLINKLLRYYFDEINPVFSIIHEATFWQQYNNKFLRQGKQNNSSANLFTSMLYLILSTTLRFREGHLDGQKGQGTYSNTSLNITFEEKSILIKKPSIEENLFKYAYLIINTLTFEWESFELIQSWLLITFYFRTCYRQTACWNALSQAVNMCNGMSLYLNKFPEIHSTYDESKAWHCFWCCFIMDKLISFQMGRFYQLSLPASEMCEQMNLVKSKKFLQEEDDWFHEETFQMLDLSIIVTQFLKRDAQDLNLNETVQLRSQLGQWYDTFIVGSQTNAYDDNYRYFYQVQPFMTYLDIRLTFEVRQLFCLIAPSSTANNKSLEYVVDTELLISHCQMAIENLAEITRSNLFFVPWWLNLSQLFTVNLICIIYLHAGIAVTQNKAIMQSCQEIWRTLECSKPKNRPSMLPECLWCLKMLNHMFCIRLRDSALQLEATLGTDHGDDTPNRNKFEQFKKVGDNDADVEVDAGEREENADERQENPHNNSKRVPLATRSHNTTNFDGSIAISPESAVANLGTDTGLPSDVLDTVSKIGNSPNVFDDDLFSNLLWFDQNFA
# Protocol details: PBM E-score (8-mer binding enrichment) (E-score (-0.5 to 0.5)); higher = stronger / more preferred TF binding
# Protocol conditions: protein concentration: 200 nM; construct: GST-DNA-binding domain
In all, about 33,000 sequences were measured (“E-score (-0.5 to 0.5)”: median about -0.056, highest 2% from about 0.38 on). The entries come from a sample that favours the highest values as a whole.

# Sequence content, PBM E-score
data = [
    ("ATTCTTTC", -0.0171),
    ("CACCGAAC", 0.224),
    ("ACCACTAA", -0.0511),
    ("GTAAGACA", -0.166),
    ("GATCCGCA", 0.316),
    ("ACGGAACA", 0.326),
    ("GATGTGGC", -0.0114),
    ("ATCCGAAG", 0.48),
    ("CCAGTAAA", -0.0636),
    ("GCTCGGGA", 0.464),
    ("GATCGGCA", 0.349),
    ("CTCCGAAA", 0.357),
    ("ATGCGAGA", -0.117),
    ("ACTCGGGG", 0.286),
    ("AAGGATAC", -0.152),
    ("CCCGCAGG", 0.115),
    ("ATCCGCAG", 0.285),
    ("AGTCGCAT", -0.137),
    ("ATTCGCAG", -0.152),
    ("CCCGGAAG", 0.417),
    ("ATCAAATG", 0.129),
    ("CCGGGAAC", 0.381),
    ("AAGGGTTC", -0.14),
    ("ATGGATAA", 0.024),
    ("TATCCGGA", 0.46),
    ("ATCCGAGA", 0.471),
    ("ATTGGATA", -0.121),
    ("CTCTCGTC", -0.0633),
    ("CATCGGCA", 0.376),
    ("AGACTGGC", -0.17),
    ("ATCGGATA", 0.467),
    ("AACCGAAG", 0.362),
    ("ATCTCGGC", 0.442),
    ("TTTCGAAA", -0.307),
    ("AACCGAAC", 0.356),
    ("ATTCCGTC", 0.285),
    ("ACGGATAT", 0.407),
    ("AACTCGGC", 0.364),
    ("TTCCGAAA", 0.468),
    ("GTTCGGCA", 0.418),
    ("ATTGGATC", -0.0271),
    ("ATTCGGCG", 0.333),
    ("ATGGGATG", -0.0874),
    ("CTCTCGCA", -0.148),
    ("GCGAGTGA", -0.0567),
    ("ACAGTGCT", -0.181),
    ("GCTTTCAC", -0.148),
    ("CCGGAATA", 0.347),
    ("ATCTGACC", 0.104),
    ("CTTCGAGA", -0.257),
    ("AATCCGGA", 0.363),
    ("AAGGCCAA", -0.173),
    ("ATCCGCGA", 0.247),
    ("CCTCCACC", -0.0886),
    ("ATCTCGCC", 0.0501),
    ("ACGGGAAG", 0.232),
    ("CGATCATC", 0.0839),
    ("ATCCGAGG", 0.481),
    ("ATCAAGGC", -0.111),
    ("AACGGATC", 0.306),
    ("ATGCGAGC", -0.123),
    ("CCCGGAGG", 0.206),
    ("CCTCGGGA", 0.444),
    ("CTCTCGAC", -0.293),
    ("GTCCGAAC", 0.335),
    ("CCGGAACG", 0.424),
    ("ACGGATAG", 0.381),
    ("ACGGAACC", 0.328),
    ("AAGCCATG", -0.117),
    ("GTGCCAGA", -0.31),
    ("AATGACGC", -0.238),
    ("ACCGGAAC", 0.419),
    ("GATCCGGA", 0.421),
    ("CCTCGGGC", 0.288),
    ("ATTATGGA", -0.154),
    ("GATCCGGC", 0.396),
    ("GTTTGCAA", -0.113),
]

Data origin, for the record: the supplement of paper PMC3334620
